Attribute: Ki
Target: Rhesus PDE2A3 (Macaca mulatta, UniProt B3VTJ2)
Sequence (B3VTJ2 1-941): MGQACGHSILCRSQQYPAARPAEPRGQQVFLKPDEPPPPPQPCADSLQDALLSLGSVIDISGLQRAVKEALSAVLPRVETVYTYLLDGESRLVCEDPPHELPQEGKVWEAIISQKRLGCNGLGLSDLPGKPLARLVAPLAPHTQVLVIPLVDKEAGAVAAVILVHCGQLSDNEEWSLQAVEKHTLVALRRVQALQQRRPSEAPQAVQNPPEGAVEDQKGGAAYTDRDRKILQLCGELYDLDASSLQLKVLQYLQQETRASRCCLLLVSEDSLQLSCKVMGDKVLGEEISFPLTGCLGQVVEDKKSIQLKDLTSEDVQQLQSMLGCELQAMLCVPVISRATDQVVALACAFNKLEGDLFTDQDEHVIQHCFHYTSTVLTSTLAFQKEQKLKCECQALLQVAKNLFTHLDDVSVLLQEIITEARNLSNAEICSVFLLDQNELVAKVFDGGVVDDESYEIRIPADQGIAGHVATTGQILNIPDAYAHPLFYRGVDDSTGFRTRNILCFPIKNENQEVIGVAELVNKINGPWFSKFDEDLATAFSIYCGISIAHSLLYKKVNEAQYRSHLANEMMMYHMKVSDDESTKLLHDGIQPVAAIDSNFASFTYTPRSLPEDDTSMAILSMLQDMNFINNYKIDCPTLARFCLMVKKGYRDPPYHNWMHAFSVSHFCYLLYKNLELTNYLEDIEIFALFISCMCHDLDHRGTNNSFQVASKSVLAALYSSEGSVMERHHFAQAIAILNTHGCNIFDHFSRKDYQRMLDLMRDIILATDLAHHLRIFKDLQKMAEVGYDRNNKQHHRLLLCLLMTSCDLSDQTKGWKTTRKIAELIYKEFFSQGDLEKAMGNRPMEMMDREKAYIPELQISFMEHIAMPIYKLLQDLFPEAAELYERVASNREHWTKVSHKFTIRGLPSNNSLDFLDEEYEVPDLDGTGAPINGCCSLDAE
Assay: PDE2 fluorescence polarization (IMAP FP) assay, rhesus PDE2A3
Format: biochemical, rhesus macaque
Details: Lab B, read-out: Rhesus PDE2 Ki (nM) Lab B

{"columns": ["molecule", "Ki / nM"],
 "data": [
  ["CC(c1ccc(OC(F)(F)F)c(F)c1)n1nc(CC#N)c2c(=O)[nH]c(O)nc21 (single isomer, unassigned) [Example 300]", 101],
  ["CC(c1ccc(OC(F)(F)F)c(F)c1)n1nc(C(F)F)c2c(=O)[nH]c(O)nc21 (single isomer, unassigned) [Example 288]", 1.6],
  ["O=c1[nH]c(O)nc2c1c(CF)nn2C(c1ccc(OC(F)(F)F)c(F)c1)C1CC1 (single isomer, unassigned) [Example 44]", 9.8],
  ["O=c1[nH]c(O)nc2c1c(CC(F)(F)F)nn2C(c1ccc(C(F)(F)F)cc1)C1CC1 (single isomer, unassigned) [Example 228]", 210],
  ["CC(C)c1ccc(C(C2CC2)n2nc(CO)c3c(=O)[nH]c(N(C)C)nc32)cc1 (single isomer, unassigned) [Example 76]", 0.21],
  ["CC(c1ccc(OC(F)(F)F)c(F)c1)n1nc(CO)c2c(=O)[nH]c(O)nc21 (single isomer, unassigned) [Example 10]", 249],
  ["CCC(c1ccc(C(F)F)cc1)n1nc(CO)c2c(=O)[nH]c(N(C)C)nc21 (single isomer, unassigned) [Example 93]", 0.55],
  ["CC(C)C(c1ccc(C(F)(F)F)c(F)c1)n1nc(CO)c2c(=O)[nH]c(O)nc21 (single isomer, unassigned) [Example 27]", 5.2],
  ["CC(c1ccc(C(F)(F)F)c(F)c1)n1nc(CO)c2c(=O)[nH]c(N(C)C)nc21 (single isomer, unassigned) [Example 68]", 11],
  ["CN(C)c1nc2c(c(CO)nn2C(c2ccc(CC(F)(F)F)c(F)c2)C2CC2)c(=O)[nH]1 (single isomer, unassigned) [Example 95]", 0.44],
  ["O=c1[nH]c(O)nc2c1c(CC(F)(F)F)nn2C(c1ccc(OC(F)(F)F)cc1)C1CC1 (single isomer, unassigned) [Example 242]", 150],
  ["CN(C)c1nc2c(c(CO)nn2C(c2ccc(C(F)(F)F)cc2)C2CC2)c(=O)[nH]1 (single isomer, unassigned) [Example 75]", 0.79],
  ["CC(C)C(c1ccc(C(F)(F)F)cc1)n1nc(CO)c2c(=O)[nH]c(O)nc21 (single isomer, unassigned) [Example 13]", 9.2],
  ["CCC(c1ccc(C(C)(F)F)c(F)c1)n1nc(CO)c2c(=O)[nH]c(N(C)C)nc21 (single isomer, unassigned) [Example 113]", 0.055],
  ["C[C@@H](c1ccc(C(C)(C)C)cc1)n1nc(CF)c2c(=O)[nH]c(O)nc21 [Example 47]", 6.9],
  ["CC(c1ccc(C(C)(C)C)cc1)n1nc(CF)c2c(=O)[nH]c(N(C)C)nc21 (single isomer, unassigned) [Example 171]", 0.24],
  ["CCC(c1ccc(C(F)(F)F)cc1)n1nc(C(F)F)c2c(=O)[nH]c(O)nc21 (single isomer, unassigned) [Example 286]", 1.5],
  ["CC(c1ccc(OC(F)(F)F)c(F)c1)n1nc(CF)c2c(=O)[nH]c(O)nc21 (centres unmarked) [Example 38]", 8.3],
  ["CC(C)C(c1ccc(C(F)(F)F)c(F)c1)n1nc(CC(F)(F)F)c2c(=O)[nH]c(O)nc21 (single isomer, unassigned) [Example 259]", 148],
  ["CC(C)c1ccc(C(C(C)C)n2nc(CF)c3c(=O)[nH]c(N(C)C)nc32)cc1 (single isomer, unassigned) [Example 177]", 0.058],
  ["CCC(c1ccc(C(C)(F)F)cc1)n1nc(CF)c2c(=O)[nH]c(N(C)C)nc21 (single isomer, unassigned) [Example 205]", 0.072],
  ["COCc1nn([C@@H](C)c2ccc(C(F)(F)F)cc2)c2nc(O)[nH]c(=O)c12 [Example 304]", 43],
  ["CC(c1ccc(C(C)(F)F)cc1F)n1nc(CO)c2c(=O)[nH]c(N(C)C)nc21 (single isomer, unassigned) [Example 108]", 0.18],
  ["CC(C)C(c1ccc(OC(F)(F)F)c(F)c1)n1nc(CC(F)(F)F)c2c(=O)[nH]c(O)nc21 (single isomer, unassigned) [Example 265]", 276],
  ["CC(C)C(c1ccc(C(F)(F)F)cc1)n1nc(CF)c2c(=O)[nH]c(N(C)C)nc21 (single isomer, unassigned) [Example 163]", 0.07]
]}

---

Target: Rhesus PDE2A3 (Macaca mulatta)
Test: PDE2 fluorescence polarization (IMAP FP) assay, rhesus PDE2A3
Format: biochemical, rhesus macaque
Conditions: Lab B, read-out: Rhesus PDE2 Ki (nM) Lab B
// classify(record): look up Ki in ranges range A: < 0.1 nM; range B: ≥ 0.1 nM and < 0.9 nM; range C: ≥ 0.9 nM

{"columns": ["molecule", "class"],
 "data": [
  ["CN(C)c1nc2c(c(CO)nn2C(c2ccc(CC(F)(F)F)cc2)C2CC2)c(=O)[nH]1 (single isomer, unassigned) [Example 87]", "range B"],
  ["CC(C)C(c1ccc(C(C)(F)F)cc1)n1nc(CF)c2c(=O)[nH]c(N(C)C)nc21 (single isomer, unassigned) [Example 206]", "range B"],
  ["CC(c1ccc(OC(F)(F)F)c(F)c1)n1nc(CO)c2c(=O)[nH]c(O)nc21 (single isomer, unassigned) [Example 11]", "range C"],
  ["CC(C)c1ccc(C(C2CC2)n2nc(CF)c3c(=O)[nH]c(N(C)C)nc32)cc1 (single isomer, unassigned)", "range A"],
  ["CC(c1ccc(C(C)(F)F)cc1)n1nc(CO)c2c(=O)[nH]c(N(C)C)nc21 (single isomer, unassigned)", "range B"],
  ["CC(C)c1ccc(C(C(C)C)n2nc(CO)c3c(=O)[nH]c(N(C)C)nc32)cc1 (single isomer, unassigned) [Example 79]", "range A"],
  ["CC(c1ccc(CC(F)(F)F)cc1)n1nc(CO)c2c(=O)[nH]c(N(C)C)nc21 (single isomer, unassigned)", "range C"],
  ["CC(c1ccc(C(C)(F)F)cc1F)n1nc(CF)c2c(=O)[nH]c(N(C)C)nc21 (single isomer, unassigned)", "range B"],
  ["CN(C)c1nc2c(c(CF)nn2C(c2ccc(C(C)(F)F)cc2)C2CC2)c(=O)[nH]1 (single isomer, unassigned) [Example 213]", "range A"],
  ["O=c1[nH]c(O)nc2c1c(CF)nn2C(c1ccc(OC(F)(F)F)c(F)c1)C1CC1 (single isomer, unassigned) [Example 45]", "range C"],
  ["CN(C)c1nc2c(c(CO)nn2C(c2ccc(C(F)(F)F)c(F)c2)C2CC2)c(=O)[nH]1 (single isomer, unassigned) [Example 151]", "range B"]
]}

---

Attribute: Ki
Biological target: human PDE2A1 (Homo sapiens (Human), UniProt O00408)
Sequence (O00408 other isoform, or with tags, fused parts or gaps): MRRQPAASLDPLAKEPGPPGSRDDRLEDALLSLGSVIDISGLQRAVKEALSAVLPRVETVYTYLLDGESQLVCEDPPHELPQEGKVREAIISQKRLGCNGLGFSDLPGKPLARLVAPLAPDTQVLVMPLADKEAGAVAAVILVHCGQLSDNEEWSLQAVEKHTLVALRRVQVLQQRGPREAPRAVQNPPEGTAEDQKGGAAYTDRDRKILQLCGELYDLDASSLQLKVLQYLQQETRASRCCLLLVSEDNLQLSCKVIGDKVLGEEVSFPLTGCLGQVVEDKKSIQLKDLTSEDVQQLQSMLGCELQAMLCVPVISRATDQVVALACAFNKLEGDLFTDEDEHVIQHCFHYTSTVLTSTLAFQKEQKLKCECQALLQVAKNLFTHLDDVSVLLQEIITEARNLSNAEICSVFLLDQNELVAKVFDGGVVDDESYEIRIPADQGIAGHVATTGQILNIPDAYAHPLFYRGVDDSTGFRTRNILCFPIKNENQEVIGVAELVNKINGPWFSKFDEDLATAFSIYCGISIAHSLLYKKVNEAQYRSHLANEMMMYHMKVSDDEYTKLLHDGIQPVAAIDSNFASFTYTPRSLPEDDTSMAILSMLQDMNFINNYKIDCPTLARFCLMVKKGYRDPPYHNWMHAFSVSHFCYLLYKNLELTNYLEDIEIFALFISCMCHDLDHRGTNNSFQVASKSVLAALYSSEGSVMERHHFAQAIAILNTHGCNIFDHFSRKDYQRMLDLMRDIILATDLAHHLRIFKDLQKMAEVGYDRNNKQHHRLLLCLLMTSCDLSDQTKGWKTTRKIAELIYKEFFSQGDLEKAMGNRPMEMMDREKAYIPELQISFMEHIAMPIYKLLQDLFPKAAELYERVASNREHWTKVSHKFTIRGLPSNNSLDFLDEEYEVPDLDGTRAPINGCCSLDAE
Test: PDE selectivity IMAP FP assay, human PDE2A1
Assay type: biochemical
Conditions: Human PDE2; Lab B; read-out: Human PDE2 Ki (nM) Lab B

{"columns": ["compound", "Ki / nM"],
 "data": [
  ["CC[C@@H](O)c1nn([C@@H](C)c2ccc(C(F)(F)F)cc2)c2nc(O)[nH]c(=O)c12 (mixture of isomers) [Example 295]", 168],
  ["CCC(c1ccc(C(F)(F)F)cc1)n1nc(CF)c2c(=O)[nH]c(N(C)C)nc21 (single isomer, unassigned) [Example 173]", 0.063],
  ["C[C@@H](c1ccc(C(F)(F)F)cc1)n1nc(CO)c2c(=O)[nH]c(N(C)C)nc21", 0.55],
  ["CC(C)C(c1ccc(OC(F)(F)F)cc1)n1nc(CF)c2c(=O)[nH]c(O)nc21 (single isomer, unassigned) [Example 42]", 14]
]}

---

Target: UniProt O00408
Test: PDE selectivity IMAP FP assay, human PDE2A1
Format: biochemical
Conditions: Human PDE2; Lab B; read-out: Human PDE2 Ki (nM) Lab B

{"columns": ["compound", "Ki [nM]"],
 "data": [
  ["CC(C)c1ccc(C(C2CC2)n2nc(CO)c3c(=O)[nH]c(N(C)C)nc32)cc1 (single isomer, unassigned) [Example 77]", 0.069],
  ["CC(C)C(c1ccc(C(F)(F)F)cc1)n1nc(C(F)F)c2c(=O)[nH]c(O)nc21 (single isomer, unassigned) [Example 281]", 1.3],
  ["CC1(C(c2ccc(C(F)(F)F)c(F)c2)n2nc(CO)c3c(=O)[nH]c(O)nc32)CC1 (single isomer, unassigned) [Example 17]", 55],
  ["CC(C)c1ccc(C(C(C)C)n2nc(CO)c3c(=O)[nH]c(N(C)C)nc32)cc1 (single isomer, unassigned) [Example 79]", 0.044],
  ["CC(C)C(c1ccc(C(F)(F)F)cc1)n1nc(CF)c2c(=O)[nH]c(O)nc21 (stereo not drawn) [Example 40]", 2.1],
  ["O=c1[nH]c(O)nc2c1c(C(F)F)nn2C(CC(F)(F)F)c1ccc(C(F)(F)F)cc1 (single isomer, unassigned) [Example 272]", 43]
]}
